Data credit: paper PMC9873692

TARGET SYSTEM: Cheytin 1
ASSAY METHOD TEXT: ITC
MEASURED QUANTITY: pKd
Please keep in mind that pKd is minus log10 of the molar concentration; only the number is needed.

Just so you know, measured pKd for P2 domain of the histidine kinase CheA (domain or fragment, biotin (in vivo biotinylation, AviTag)) GFKTFYIKVILKEGTQLKSARIYLVFHKLEELKCEVVRTIPSVEEIEEEKFENEVELFVISPVDLEKLSEALSSIADIERVIIKEV came out at 6.66
